Assay: Cell Titer-fluor cell activity assay in HCV-1b replicon cells (CC50)
Assay type: cell-based
PARAMETER MEASURED: CC50 at 3 days

COC(=O)N[C@H](C(=O)N1CCC[C@H]1c1ncc(-c2ccc(-c3ccc(-c4cnc([C@H]5C6CCC(C6)[C@@H]5C(=O)NCc5cccnc5F)[nH]4)cc3)cc2)[nH]1)C(C)C (stereo partly shown) [AA_224_A] :: > 1 nM
COC(=O)N[C@H](C(=O)N1CCC[C@@H]1c1[nH]c(-c2ccc(-c3ccc(-c4cnc([C@@H]5CCCN5C(=O)[C@@H](NC(=O)OC)C(C)C)[nH]4)cc3)cc2)c2c1CCO2)C(C)C [AG_122_B] :: > 1 nM
COC(=O)NC(C(=O)N1CCC[C@H]1c1ncc(-c2ccc(-c3ccc(-c4cnc(C5CCCC[C@@H]5C(=O)N(NC(=O)OC)C(C)C)[nH]4)cc3)cc2)[nH]1)C1CCOC1 (stereo partly shown) [AA_122] :: > 100 nM
COC(=O)N[C@H](C(=O)N1CCCC1c1ccc(-c2ccc(-c3ccc(-c4cnc([C@@H]5CCCN5C(=O)[C@@H](NC(=O)OC)C5CCOC5)[nH]4)cc3)cc2)[nH]1)C(C)C (stereo partly shown) [AG_054] :: > 10 nM
COC(=O)N[C@H](C(=O)N1CCC[C@H]1c1ncc(-c2ccc(-c3ccc(-c4cnc([C@H]5C6CCC(C6)[C@@H]5C(=O)NCc5cccnc5O)[nH]4)cc3)cc2)[nH]1)C(C)C (stereo partly shown) [AA_228] :: > 1 nM
COC(=O)N[C@H](C(=O)N1CCC[C@H]1c1ncc(-c2ccc(-c3ccc(-c4cnc(C5C6CCC(C6)[C@@H]5C(=O)N[C@H](c5cccnc5)C(C)C)[nH]4)cc3)cc2)[nH]1)[C@@H](C)OC (stereo partly shown) [AA_267_A] :: > 1 nM
COC(=O)N[C@H](C(=O)N1CCC[C@H]1c1ncc(-c2ccc(-c3ccc(-c4cnc(C5C6CCC(C6)[C@H]5C(=O)NCc5nccs5)[nH]4)cc3)cc2)[nH]1)[C@@H](C)OC (stereo partly shown) [AA_219_A] :: > 1 nM
COC(=O)N[C@H](C(=O)N1CCC[C@H]1c1ncc(-c2ccc(-c3ccc(-c4cnc([C@H]5C6CCC(C6)[C@@H]5C(=O)NCc5cccs5)[nH]4)cc3)cc2)[nH]1)C(C)C (stereo partly shown) [AA_196_A] :: > 1 nM
COC(=O)N[C@H](C(=O)N1CCC[C@H]1c1ncc(-c2ccc(-c3ccc(-c4cnc([C@@H]5C6CCC(C6)[C@H]5C(=O)NCc5ccc(C(F)(F)F)nc5)[nH]4)cc3)cc2)[nH]1)C(C)C (stereo partly shown) [AA_232_B] :: > 1 nM
COC(=O)N[C@H](C(=O)N1CCC[C@H]1c1ncc(-c2ccc(-c3ccc(-c4cnc(C5=C(C(=O)N(NC(=O)OC)C(C)C)CCC5)[nH]4)cc3)cc2)[nH]1)C(C)C [AA_007] :: > 100 nM

* * *

This section presents compounds with their documented CC50 at 3 days values.
Experiment: Cell Titer-fluor cell activity assay in HCV-1b replicon cells (CC50)
Format: cell-based
PARAMETER MEASURED: CC50 at 3 days

COC(=O)N[C@H](C(=O)N1CCC[C@H]1c1ncc(-c2ccc(-c3ccc(-c4cnc([C@@H]5C6CCC(C6)[C@H]5C(=O)NCc5ccc(C(C)C)nc5)[nH]4)cc3)cc2)[nH]1)C(C)C (some centres unmarked) :: > 1 nM
CCOC(=O)CNC(=O)[C@@H](NC(=O)[C@@H]1[C@@H]2CC[C@@H](C2)[C@H]1c1ncc(-c2ccc(-c3ccc(-c4cnc([C@@H]5CCCN5C(=O)[C@@H](NC(=O)OC)C(C)C)[nH]4)cc3)cc2)[nH]1)C(C)C [AA_301_ENDOA2] :: > 1 nM
COC(=O)N[C@H](C(=O)N1CCC[C@H]1c1ncc(-c2ccc(-c3ccc(-c4cnc([C@H]5CCCC[C@@H]5C(=O)NCc5ccc(Cl)nc5)[nH]4)cc3)cc2)[nH]1)C(C)C :: > 5 nM
COC(=O)N[C@H](C(=O)N1CCC[C@H]1c1ncc(-c2ccc(-c3ccc(-c4ccc(C5CCCN5C(=O)[C@@H](NC(=O)OC)C(C)C)[nH]4)cc3)cc2)[nH]1)c1ccccc1 (some centres unmarked) :: > 100 nM
COC(=O)NN(C(=O)[C@H]1CCCCC1c1ncc(-c2ccc(-c3ccc4cc(-c5cnc(C6CCCC[C@H]6C(=O)N(NC(=O)OC)C(C)C)[nH]5)ccc4c3)cc2)[nH]1)C(C)C (some centres unmarked) :: > 10 nM

* * *

Tested on: HCV genotype 1a (HCV-1a) replicon cells
Test: HCV genotype 1a replicon luciferase assay (EC50)
Format: cell-based, hepatitis C virus genotype 1a (H77 clone)
Conditions: 3 days, luciferase (Bright-Glo)
This section presents compounds with their documented EC50 values.
PARAMETER MEASURED: EC50

COC(=O)N[C@H](C(=O)N1CC2(C[C@H]1c1ncc(-c3ccc(-c4ccc(-c5[nH]c([C@@H]6CCCN6C(=O)[C@@H](NC(=O)OC)[C@@H](C)OC)c6c5CCC6)cc4)cc3)[nH]1)OCCO2)[C@@H](C)OC :: 1 to 10 nM
COC(=O)N[C@H](C(=O)N1CCC[C@H]1c1ncc(-c2ccc(-c3ccc(-c4cnc(C5C6CCC(C6)[C@H]5C(=O)N[C@H](c5cccnc5)C(C)C)[nH]4)cc3)cc2)[nH]1)[C@@H](C)OC (stereo partly drawn) [AA_267_B] :: 1 to 10 nM
COC(=O)N[C@H](C(=O)N1CCC[C@H]1c1ncc(-c2ccc(-c3ccc(-c4cnc([C@H]5C6CCC(C6)[C@@H]5C(=O)NC(c5cccnc5)C(C)C)[nH]4)cc3)cc2)[nH]1)C(C)C (single isomer, unassigned) [AA_233_C] :: 10 to 100 nM
COC(=O)NC(C(=O)N1CCCC1c1[nH]c(-c2ccc(-c3ccc(-c4cnc([C@@H]5CCCN5C(=O)[C@@H](NC(=O)OC)C(C)C)[nH]4)cc3)cc2)c2c1CCC2)C1CCOC1 (single isomer, unassigned) [AG_025_C] :: 10 to 100 nM
COC(=O)N[C@H](C(=O)N1CCCC1c1ccc(-c2ccc(-c3ccc(-c4cnc([C@@H]5CCCN5C(=O)[C@@H](NC(=O)OC)[C@@H](C)OC)[nH]4)cc3)cc2)[nH]1)[C@@H](C)OC (single isomer, unassigned) [AG_072_A] :: 0.001 to 0.1 nM
COC(=O)N[C@H](C(=O)N1CCC[C@H]1c1ncc(-c2ccc(-c3ccc(-c4cnc(C5C6CCC(C6)[C@@H]5C(=O)N[C@H](C)c5cccnc5)[nH]4)cc3)cc2)[nH]1)[C@@H](C)OC (single isomer, unassigned) :: 10 to 100 nM

* * *

This section presents compounds with their documented CC50 at 3 days values.
Test: Cell Titer-fluor cell activity assay in HCV-1b replicon cells (CC50)
Format: cell-based
PARAMETER MEASURED: CC50 at 3 days

COC(=O)N[C@H](C(=O)N1CCC[C@H]1c1ncc(-c2ccc(-c3ccc(-c4cnc([C@H]5C6CCC(C6)[C@@H]5C(=O)NCC5CNc6ccccc6C5)[nH]4)cc3)cc2)[nH]1)C(C)C (stereo partly drawn) :: > 1 nM
COC(=O)N[C@H](C(=O)N1CCCC1c1ncc(-c2ccc(-c3ccc(-c4[nH]c(C5CCCN5C(=O)[C@@H](NC(=O)OC)C(C)C)c5c4CCCC5)cc3)cc2)[nH]1)C(C)C (stereo partly drawn) :: > 10 nM
COC(=O)N[C@H](C(=O)N1CCC[C@H]1c1ncc(-c2ccc(-c3ccc(-c4cnc([C@H]5CCCC[C@@H]5C(=O)N(NC(=O)OC)C(C)C)[nH]4)cc3)cc2)[nH]1)C(C)C :: > 10 nM
COC(=O)NC(C(=O)N1CCCC1c1[nH]c(-c2ccc(-c3ccc(-c4cnc([C@@H]5CCCN5C(=O)C(NC(=O)OC)C5CCOCC5)[nH]4)cc3)cc2)c2c1CCCC2)C1CCOCC1 (stereo partly drawn) :: > 100 nM
COC(=O)N[C@H](C(=O)N1CCC[C@H]1c1ncc(-c2ccc(-c3ccc(-c4cnc([C@@H]5C6CCC(C6)[C@H]5C(=O)NCc5ccccc5)[nH]4)cc3)cc2)[nH]1)C(C)C (stereo partly drawn) :: > 1 nM
COC(=O)N[C@H](C(=O)N1CCC[C@H]1c1ncc(-c2ccc(-c3ccc(-c4cnc(C5C6CCC(C6)[C@H]5C(=O)N[C@@H](C)c5ccccc5)[nH]4)cc3)cc2)[nH]1)[C@@H](C)OC (stereo partly drawn) :: > 1 nM
COC(=O)N[C@H](C(=O)N1CCC[C@H]1c1ncc(-c2ccc(-c3ccc(-c4[nH]c([C@@H]5CCCN5C(=O)[C@@H](NC(=O)OC)[C@@H](C)OC)c5c4COC5)cc3)cc2)[nH]1)[C@@H](C)O :: > 1 nM
COC(=O)N[C@H](C(=O)N1CCCC1c1ccc(-c2ccc(-c3ccc(-c4cnc([C@@H]5COC(C)(C)N5C(=O)[C@@H](NC(=O)OC)C(C)C)[nH]4)cc3)cc2)[nH]1)C(C)C (stereo partly drawn) :: > 10 nM
COC(=O)N[C@H](C(=O)N1CCC[C@H]1c1ncc(-c2ccc(-c3ccc(-c4cnc([C@@H]5C6CCC(C6)C5C(=O)NCc5cccnc5)[nH]4)cc3)nc2)[nH]1)[C@@H](C)OC (stereo partly drawn) :: > 1 nM
